test system: PC-3; experiment: NCI tumour cell line growth inhibition, 48 h
Activity calls are given as the source filed them. Cut-off read from the data, not from the text of the source: active = GI50 up to about 1.1 µM and inactive = higher.
Returns: one label drawn from y (active), n (inactive)

Inquiry: Recorded call for CCOC(=O)C(Cc1cn(S(=O)(=O)c2ccc(C)cc2)cn1)P(=O)(OCC)OCC (configuration not stated) ?
Reply text: n

Inquiry: // repeat for `Nc1nc2cc(Cl)ccc2n1N` and report
Reply text: n

Inquiry: // repeat for `Cc1ccc(S(=O)(=O)NN=C2CCCCCCCCCCC2)cc1` and report
Reply text: n

Inquiry: // repeat for `COc1ccc2nc(-c3ccc(O)cc3)cn2c1` and report
Reply text: n

Inquiry: // repeat for Nc1nc(Cl)c(N)c(NCC2(CO)CCC(OCc3ccccc3)C2)n1 (configuration not stated) and report
Reply text: n

Inquiry: // repeat for `COC(=O)c1c(O)ccc2c1c1c(n2Cc2ccccn2)C(=O)c2ccccc2C1=O` and report
Reply text: n

Inquiry: // repeat for C=C1CC(C#N)(C#N)[C@@H]2CC3CCCC3[C@H]12.C=C1CC(C#N)(C#N)[C@H]2C3CCCC3C[C@@H]12 (some centres not stated) and report
Reply text: n

Inquiry: // repeat for CC1C(c2ccc(Cl)cc2)c2cc3c(cc2OC1N1CCOCC1)OCO3 (configuration not stated) and report
Reply text: n

Inquiry: // repeat for O=C(O)C1CC2C3CCC2C1C3=O (configuration not stated) and report
Reply text: n

Inquiry: // repeat for CC1/C(=N/O)CC(c2ccccc2)N(N=O)C1c1ccccc1 (configuration not stated) and report
Reply text: n

Inquiry: // repeat for CC(NC(=O)c1ccc(OP(=O)(OCC2=CC(=O)c3ccccc3C2=O)N(C)CCCCCl)cc1)c1ccc(OCC2CCCCC2)c(C(N)=O)c1 (configuration not stated) and report
Reply text: n

Inquiry: // repeat for `O=C1OC(c2ccc(O)cc2)(c2ccc(O)cc2)c2ccc(Cl)c3cccc1c23.O=C1OC(c2ccc(O)cc2)(c2ccc(O)cc2)c2cccc3c(Cl)ccc1c23` and report
Reply text: n

Inquiry: // repeat for CC1=C2C(=C[C@@](C)(CO)[C@@H]2O)C(=O)[C@](C)(O)C12CC2 [ILLUDIN] and report
Reply text: y

Inquiry: // repeat for `O=C(O)C(Cc1ccccc1)Cc1ccccc1` and report
Reply text: n

Inquiry: // repeat for O=C1NC(=O)/C(=C/c2ccc(S(=O)(=O)N/N=C\C(O)C(O)C(O)C(O)CO)cc2)N1 (configuration not stated) and report
Reply text: n

Inquiry: // repeat for `O=C(O)CCCc1ccc2ccc3ccccc3c2c1` and report
Reply text: n

Inquiry: // repeat for `CCCCCCNC(=O)C1=C(C)NC(C)=C(C(=O)NCCCCCC)C1` and report
Reply text: n
